The entries below are paired with their reported pIC50.
Molecular target: Replicase polyprotein 1ab (Severe acute respiratory syndrome coronavirus 2, UniProt P0DTD1)
On this scale, pIC50 is minus log10 of a concentration expressed in M (mol/L).

As a guide, the following entries are already answered.
COMPOUND: Fc1cccc(COc2ccc(Nc3ncnc4ccccc34)cc2Cl)c1
MEAS_VALUE: 5.50
--
COMPOUND: O=C(Nc1ccccc1)c1cccc(COc2ccc(Nc3ncnc4ccccc34)cc2Cl)c1
MEAS_VALUE: 5.43
--
COMPOUND: Clc1cc(Nc2ncnc3ccccc23)ccc1OCc1cccc(Br)c1
MEAS_VALUE: 5.36
--
COMPOUND: O=C(Nc1ccc(Cl)cc1)c1ccc(COc2ccc(Nc3ncnc4ccccc34)cc2Cl)cc1
MEAS_VALUE: 5.32
--
COMPOUND: Clc1cc(Nc2ncnc3ccccc23)ccc1OCc1ccccc1
MEAS_VALUE: 5.40

# context switch: different compound, same pIC50
### Prompt Bench note: what pIC50 did `O=C(Nc1cccc(I)c1)c1ccc(COc2ccc(Nc3ncnc4ccccc34)cc2Cl)cc1` show?
### Response 5.04
